These entries and their values trace back to patent US20100074083A1.

Assay: Weight reducing temperature at heating (heat resistance, TG-DTA)
Type: physicochemical
Conditions: heated at 5° C./minutes under nitrogen
Description: The sample was heated at 5° C./minutes under nitrogen, and measured by means of TG8120 type TG-DTA device manufactured by Rigaku Corporation.
experimental endpoint: Heat resistance 1% by weight reducing temperature (°C)

{"smiles code": "CCCCCCCCCCCCNc1nc(N(CCCCCCCCCCCC)C2CC(C)(C)NC(C)(C)C2)nc(N(CCCCCCCCCCCC)C2CC(C)(C)NC(C)(C)C2)n1", "endpoint result": 292.9}
{"smiles code": "CCCCCCCCCCCCNc1nc(N(CCCC)C2CC(C)(C)N(C)C(C)(C)C2)nc(N(CCCC)C2CC(C)(C)N(C)C(C)(C)C2)n1", "endpoint result": 271.6}
{"smiles code": "CCCCCCCCN(c1nc(N(CCCCCCCC)C2CC(C)(C)N(C)C(C)(C)C2)nc(N(CCCCCCCC)C2CC(C)(C)N(C)C(C)(C)C2)n1)C1CC(C)(C)N(C)C(C)(C)C1", "endpoint result": 291.5}
{"smiles code": "CCCCCCCCCCCCN(CCCNc1nc(N(CCCC)C2CC(C)(C)N(C)C(C)(C)C2)nc(N(CCCC)C2CC(C)(C)N(C)C(C)(C)C2)n1)CCCNc1nc(N(CCCC)C2CC(C)(C)N(C)C(C)(C)C2)nc(N(CCCC)C2CC(C)(C)N(C)C(C)(C)C2)n1", "endpoint result": 292.7}
{"smiles code": "CC1(C)CC(OC(=O)CCCCCCCCC(=O)OC2CC(C)(C)NC(C)(C)C2)CC(C)(C)N1", "endpoint result": 207.4}
